- TARGET UNDER TEST: Phosphodiesterase 4 (Homo sapiens, UniProt P27815+Q08499+Q07343+Q08493)
- ASSAY NAME: Inhibitory concentration against phosphodiesterase 4 (PDE4) in cytosol of human neutrophils
- Assay type: protein assay
QUANTITY: Log IC50
Please respond with just the number, no unit label.

Sample answers from the record:
{"columns": ["COMPOUND", "TARGET UNDER TEST", "Log IC50"],
 "data": [
  ["COc1ccc(C2=NN(CC(=O)O)C(=O)C3CCCCC23)cc1OC (stereo unspecified)", "Phosphodiesterase 4 (Homo sapiens, UniProt P27815+Q08499+Q07343+Q08493)", -5.7],
  ["C=CCN1N=C(c2ccc(OC)c(OC)c2)C2CCCCC2C1=O (stereo unspecified)", "Phosphodiesterase 4 (Homo sapiens, UniProt P27815+Q08499+Q07343+Q08493)", -7.6],
  ["COc1cc(CN2N=C(c3ccc(OC)c(OC)c3)C3CCCCC3C2=O)cc(OC)c1 (stereo unspecified)", "Phosphodiesterase 4 (Homo sapiens, UniProt P27815+Q08499+Q07343+Q08493)", -7.6],
  ["COc1ccc(C2=NN(CC#N)C(=O)C3CCCCC23)cc1OC (stereo unspecified)", "Phosphodiesterase 4 (Homo sapiens, UniProt P27815+Q08499+Q07343+Q08493)", -7.2],
  ["COc1ccc(C2=NN(CCn3ccnc3)C(=O)C3CCCCC23)cc1OC (stereo unspecified)", "Phosphodiesterase 4 (Homo sapiens, UniProt P27815+Q08499+Q07343+Q08493)", -6.3]
]}

Prompt line: Recall the recorded Log IC50 for COc1ccc(C2=NN(CCO)C(=O)C3CCCCC23)cc1OC (stereo unspecified) with Phosphodiesterase 4 (Homo sapiens, UniProt P27815+Q08499+Q07343+Q08493) and state it.
Response line: -6.8

* * *

- TARGET UNDER TEST: Phosphodiesterase 4 (Homo sapiens, UniProt P27815+Q08499+Q07343+Q08493)
- ASSAY NAME: Inhibitory concentration against phosphodiesterase 4 (PDE4) in cytosol of human neutrophils
- Format: protein assay
This listing pairs compounds with measured Log IC50.
Please respond with just the number, no unit label.

{"columns": ["COMPOUND", "RECORDED RESULT"],
 "data": [
  ["COc1ccc(C2=NN(C3CCCCC3)C(=O)C3CC=CCC23)cc1OC (stereo not given)", -9.2],
  ["COc1ccc(C2=NN(C3CCCCCC3)C(=O)C3CCCCC23)cc1OC (stereo not given)", -8.6],
  ["COC(=O)c1ccc(CN2N=C(c3ccc(OC)c(OC)c3)C3CCCCC3C2=O)cc1 (stereo not given)", -7.9]
]}

Prompt line: Consider the compound COc1ccc(C2=NN(CCCCCCN(C)C)C(=O)C3CCCCC23)cc1OC (stereo not given) and give its measured Log IC50.
Response line: -7

Prompt line: Note, next up: COc1ccc(C2=NN(Cc3ccncc3)C(=O)C3CCCCC23)cc1OC (stereo not given)
Response line: -7.8

Prompt line: Note, next up: C#CCN1N=C(c2ccc(OC)c(OC)c2)C2CCCCC2C1=O (stereo not given)
Response line: -7.4

Prompt line: Note, next up: COc1ccc(C2=NN(C/C=C/c3ccccc3)C(=O)C3CCCCC23)cc1OC (stereo not given)
Response line: -7.8

Prompt line: Note, next up: CCOC(=O)CN1N=C(c2ccc(OC)c(OC)c2)C2CCCCC2C1=O (stereo not given)
Response line: -7.2

Prompt line: Note, next up: COc1ccc(C2=NN(CCCCCCCC(=O)O)C(=O)C3CCCCC23)cc1OC (stereo not given)
Response line: -7.6

Prompt line: Note, next up: COc1ccc(C2=NN(c3ccccc3)C(=O)C3CCCCC23)cc1OC (stereo not given)
Response line: -7.6
